Target: PD-L1 His protein / PD-1 Fc protein (Homo sapiens (Human), UniProt Q9NZQ7)
Sequence (Q9NZQ7 19-238): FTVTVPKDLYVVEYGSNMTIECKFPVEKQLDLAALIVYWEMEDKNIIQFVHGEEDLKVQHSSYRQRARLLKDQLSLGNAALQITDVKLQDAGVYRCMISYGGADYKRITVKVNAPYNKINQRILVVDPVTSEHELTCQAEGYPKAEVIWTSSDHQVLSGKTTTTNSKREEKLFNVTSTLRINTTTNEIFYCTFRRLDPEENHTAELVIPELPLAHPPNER
Assay: HTRF Assay (PD-1/PD-L1 interaction)
Format: binding
Details: PD-L1 His 6 nM, PD-1 Fc 6 nM
endpoint.label: pIC50
Reminder that pIC50 means the negative base-10 logarithm of the concentration expressed in mol/L.

Answered cases to consult:
# compound, pIC50
data = [
    ("COc1cc(-c2nccc(-c3cccc(-c4ccc(CNC[C@@H]5CCC(=O)N5)c(OC)n4)c3Cl)c2Cl)ccc1C1=NCCN1 [Compound 179]", 8.61),
    ("COc1nc(-c2ccnc(-c3cccc4c3CC[C@@H]4Oc3nc(OC)c(CNC[C@@H]4CCC(=O)N4)cc3C(F)(F)F)c2Cl)ccc1CNC[C@@H]1CCC(=O)N1 [Compound 166]", 9.74),
    ("COc1nc(-c2cccc(-c3ccnc(-c4cc5c(=O)n(C)c(CNC(C)C)nn5c4)c3Cl)c2Cl)ccc1CNC[C@@H]1CCC(=O)N1 [Compound 111]", 8.66),
    ("COc1cc(-c2nccc(-c3cccc(-c4ccc(CNC5CCN(CCO)CC5)c(OC)n4)c3Cl)c2Cl)ccc1CNC1CCN(CCO)CC1 [Example 328]", 8.82),
    ("COc1nc(-c2cccc(-c3ccnc(-c4ccc5c(CN(C)CCO)cn(C)c5c4)c3Cl)c2Cl)ccc1CNC[C@@H]1CCC(=O)N1 [Compound 39]", 9.00),
    ("COc1nc(-c2cccc(-c3nccc(-c4ccc(CNC[C@@H]5CCC(=O)N5)c(OC)n4)c3Cl)c2Cl)ccc1CNC[C@@H]1CCC(=O)N1 [Compound 575]", 9.96),
    ("COc1cc(-c2nccc(-c3cccc(-c4ccc(CNC5CCN(C(C)=O)CC5)c(OC)n4)c3Cl)c2Cl)ccc1CN(C)C1CCN(C(C)=O)CC1 [Example 315]", 8.81),
    ("COc1nc(-c2cccc(-c3nccc(-c4ccc(CN5CC6(CNC(=O)C6)C5)c(OC)n4)c3Cl)c2Cl)ccc1CN1CCC(O)CC1 [Compound 681]", 8.97),
    ("COc1cc(-c2nccc(-c3cccc(-c4ccc(CNC[C@@H]5CCC(=O)N5)c(OC)n4)c3Cl)c2C)ccc1CNC[C@@H]1CCC(=O)N1 [Example 414]", 8.80),
    ("COc1cc(-c2nccc(-c3cccc(-c4ccc(CNC5CCOCC5)c(OC)n4)c3Cl)c2Cl)cnc1CNC1CCOCC1 [Compound 431]", 8.69),
]

pIC50 for COc1cc(-c2nccc(-c3cccc(-c4ccc(CN5CC(C)(O)C5)c(OC)n4)c3Cl)c2Cl)cc2c1CN(C[C@H](C)O)CC2 [Compound 217] is 8.70

Consider COc1nc(-c2cccc(-c3ccnc(-c4ccc5c(c4)CN(CCNC[C@@H]4CCC(=O)N4)C5=O)c3Cl)c2Cl)cc(F)c1CNC[C@@H]1CCC(=O)N1 [Compound 178] . Its measured pIC50 is 8.90

====

Biological target: human PD-L1 (Homo sapiens (Human), UniProt Q9NZQ7)
Sequence (Q9NZQ7 19-290): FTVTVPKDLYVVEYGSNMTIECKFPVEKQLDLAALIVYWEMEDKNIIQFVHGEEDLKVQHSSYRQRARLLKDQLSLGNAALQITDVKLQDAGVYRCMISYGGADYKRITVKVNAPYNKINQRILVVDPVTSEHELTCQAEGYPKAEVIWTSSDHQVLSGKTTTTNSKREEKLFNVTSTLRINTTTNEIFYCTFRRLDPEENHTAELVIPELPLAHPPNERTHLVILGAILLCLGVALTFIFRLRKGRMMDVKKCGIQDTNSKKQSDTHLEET
Experiment: T cell activation luciferase reporter cell culture system (T Cell Activation Assay)
Assay type: cell-based
Conditions: luciferase reporter assay; PD-L1 aAPC/CHO-K1 cells with PD-1 effector Jurkat T cells
# reported pEC50; entries follow
Scale explanation: pEC50 corresponds to minus log10 of a concentration expressed in moles per litre.

Worked cases, answers included:
# molecule, pEC50
rows = [
    ("COc1nc(-c2cccc(-c3ccnc(-c4cc5c(=O)n(C)c(CN6CC7(CC(O)C7)C6)nn5c4)c3Cl)c2Cl)ccc1CNC[C@@H]1CCC(=O)N1 [Compound 48]", 7.73),
    ("COc1cc(-c2nccc(-c3cccc(-c4ccc(CN5CC6(CCC(=O)N6)C5)c(OC)n4)c3Cl)c2Cl)cnc1CN1CC2(CCC(=O)N2)C1 [Compound 430]", 7.63),
]

Now consider a different molecule.
COc1cc(-c2nccc(-c3cccc(-c4ccc(CNC[C@@H]5CCC(=O)N5)c(OC)n4)c3Cl)c2Cl)cc2c1CN(C[C@H](C)O)CC2 [Cmpd 50] has a reported pEC50 of 7.54

Where these numbers come from: patent US20240246964A1
